Origin of the recorded values: patent US20170051048A1

target_or_test_system: T1, Homo sapiens Beta-Nerve Growth Factor (beta-NGF) (Homo sapiens, UniProt P01138 122-241)
T1 construct: Biotinylated and held on neutravidin plates in the ELISA; also called huNGF; B-NGF
T1 sequence (P01138 122-241): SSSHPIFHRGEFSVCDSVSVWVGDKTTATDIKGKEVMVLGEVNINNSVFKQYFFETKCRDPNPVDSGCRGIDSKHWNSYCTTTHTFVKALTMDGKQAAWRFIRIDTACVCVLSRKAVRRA
measurement_description: Antigen binding ELISA: biotinylated NGF on neutravidin plates, anti-human Fc-HRP, OD 450 nm
Please go through the items and note down their EC50 (read off the curve).

[in] Requested read-out: EC50 (read off the curve). Entry: Antibody Ab1 (antibody, human IgG1, kappa, N297A, V domains shown) VH: QSLEESGGRLVTPGTPLTLTCTVSGFSLSSYAMSWVRQAPGKGLEWIGVITSIGSTVYASWAKGRFTISKTSTTVDLKITSPTTEDTATYFCARGYDDYDEMTYFNIWGQGTLVTVSS VL: ALVMTQTPSSVSAAVGGTVTINCQASQNIYSNLAWYQQRPGQRPKLLIYGASNLDAGVPSRFRGSGSGTEYTLTISDLECDDVGTYYCQSAFDSDSTENTFGGGTEVVVKR
[out] ~0.6 nM

[in] Fill in: EC50 (read off the curve) of Antibody Ab4 (antibody, human IgG1, kappa, N297A, V domains shown) VH: EVQLVESGGGLVQPGGSLRLSCAASGFTVSSYVMIWVRQAPGKGLEYIGITWSAGTYYASSAKGRFTISRDNSKNTLYLQMNSLRAEDTAVYYCAGGGGSIYDIWGQGTLVTVSS VL: DIQMTQSPSTLSASVGDRVTITCQSSQSVYKNNYLSWYQQKPGKAPKLLIYDASNLPSGVPSRFSGSGSGTEFTLTISSLQPDDFATYYCLGDYDDDADNAFGGGTKVEIKR is ___
[out] ~0.05 nM

[in] State the recorded EC50 (read off the curve) for this entry: Antibody Ab5 (antibody, human IgG1, kappa, N297A, V domains shown) VH: QSVEESGGRLVTPGTPLTLTCTVSGFSLSNYAVGWVRQAPGKGLEWIGIIGRNGNTWYASWARGRFTISKTSTTVDLKITSPTSEDTATYFCARGYGRSVAYYVFNIWGPGTLVTVSS VL: AYDMTQTPASVEVAVGGTVTIKCQASQSIYSNLAWYQQRPGQPPKLLIYDASTLESGVPSRFKGSGSGTEYTLTISGVECADAASYYCQQGFTVSDIDNAFGGGTEVVVKR
[out] ~0.3 nM

[in] Please give the measured EC50 (read off the curve) for this binder: Antibody Ab2 (antibody, human IgG1, kappa, N297A, V domains shown) VH: EVQLVESGGGLVQPGGSLRLSCAASGFTVSSYAMSWVRQAPGKGLEWVGVITSIGSTVYASSAKGRFTISRDNSKNTLYLQMNSLRAEDTAVYYCARGYDDYDEMTYFNIWGQGTLVTVSS VL: DIQMTQSPSTLSASVGDRVTITCQASQNIYSNLAWYQQKPGKAPKLLIYGASNLDAGVPSRFSGSGSGTEYTLTISSLQPDDFATYYCQSAFDSDSTENTFGGGTKVEIKR
[out] ~0.7 nM

[in] # EC50 (read off the curve) lookup, item Antibody Ab3 (antibody, human IgG1, kappa, N297A, V domains shown) VH: QSVEESGGRLVTPGTPLTLTCTVSGFSLSSYVMIWVRQAPGKGLEYIGITWSAGTYYASWAKGRFTISKTSSTTVDLKITSPTTEDTATYFCAGGGGSIYDIWGPGTLVTVSS VL: AVLTQTPSPVSAAMGDTVTIKCQSSQSVYKNNYLSWYQQKPGQPPRLLIYDASNLPSGVPSRFSGSGSGTQFTLTISGVQCDDAATYYCLGDYDDDADNAFGGGTEVVVKR
[out] ~0.3 nM
